tested on: 697; assay: selective drug sensitivity score (sDSS, relative to normal bone marrow) (sDSS (score)); higher = more potent and effective on the cell line relative to normal bone marrow cells; conditions: 72 h;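 further: ALL cell lines in 384-well plates, five doses spanning 10,000-fold, each plate scaled between vehicle and 100 µmol/L benzalkonium chloride controls, sDSS an adapted area-under-curve metric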
Some compounds, each annotated with its measured selective drug sensitivity score.

{"compound": "NS(=O)(=O)NCCNc1nonc1/C(=N/O)Nc1ccc(F)c(Br)c1 [Epacadostat] (top concentration 10000 nM)", "selective drug sensitivity score": -0.26}
{"compound": "FC(F)c1nc2ccccc2n1-c1nc(N2CCOCC2)nc(N2CCOCC2)n1 [ZSTK474] (top concentration 10000 nM)", "selective drug sensitivity score": 8.46}
{"compound": "C[C@@H](Oc1cc(-n2cnc3ccc(CN4CCN(C)CC4)cc32)sc1C(N)=O)c1ccccc1C(F)(F)F (top concentration 10000 nM)", "selective drug sensitivity score": 20.5}
{"compound": "COC(=O)C[C@](O)(CCCC(C)(C)O)C(=O)O[C@@H]1C(OC)=C[C@]23CCCN2CCc2cc4c(cc2[C@H]13)OCO4 [Omacetaxine] (top concentration 10000 nM)", "selective drug sensitivity score": 10.5}

====

Some compounds, each annotated with its measured selective drug sensitivity score.
system: P30-OHKUBO; assay: selective drug sensitivity score (sDSS, relative to normal bone marrow) (sDSS (score)); higher = more potent and effective on the cell line relative to normal bone marrow cells; details: 72 h

{"compound": "FC(F)(F)c1ccc(/C=C/c2nc(COc3ccc(CCCCn4ccnn4)cc3)co2)cc1 [Mubritinib] (top concentration 1000 nM)", "selective drug sensitivity score": 7.06}
{"compound": "Cc1cnc(-c2ccccc2C(C)C)nc1NCc1ccc(-n2ccnn2)cc1 [ML323] (top concentration 10000 nM)", "selective drug sensitivity score": 0.54}
{"compound": "COc1cc2ncnc(Oc3cccc(NC(=O)Nc4cc(C(C)(C)C(F)(F)F)on4)c3)c2cc1OC (top concentration 10000 nM)", "selective drug sensitivity score": 3.2}
{"compound": "Nc1nc(Cl)nc2c1ncn2[C@H]1C[C@H](O)[C@@H](CO)O1 [Cladribine] (top concentration 1000 nM)", "selective drug sensitivity score": 8.06}
{"compound": "CCc1cncnc1N1CCN(Cc2nc3cc(C(F)(F)F)ccc3[nH]2)CC1 (top concentration 10000 nM)", "selective drug sensitivity score": 5.26}
{"compound": "O=C(c1cccc(Cl)c1F)N1CCN(Cc2cccc(Nc3nccs3)n2)CC1 [MK-8745] (top concentration 10000 nM)", "selective drug sensitivity score": 9.1}
{"compound": "Cc1cn(-c2cc(NC(=O)c3ccc(C)c(Nc4nccc(-c5cccnc5)n4)c3)cc(C(F)(F)F)c2)cn1 [Nilotinib] (top concentration 10000 nM)", "selective drug sensitivity score": 2.5}
{"compound": "COC(=O)c1ccc2c(c1)[nH]c1ncnc(NCCCN3CCCCC3)c12 [UM729] (top concentration 10000 nM)", "selective drug sensitivity score": 1.44}
{"compound": "Cn1ncnc1[C@H]1c2n[nH]c(=O)c3cc(F)cc(c23)N[C@@H]1c1ccc(F)cc1 [Talazoparib] (top concentration 1000 nM)", "selective drug sensitivity score": 9.68}
{"compound": "COc1ccc(-c2ccc3ncc4c(c3c2)n(-c2ccc(N3CCNCC3)c(C(F)(F)F)c2)c(=O)n4C)cn1 [NVP-BGT226] (top concentration 1000 nM)", "selective drug sensitivity score": 12.2}
{"compound": "CN(C)C/C=C/C(=O)Nc1cc2c(Nc3ccc(F)c(Cl)c3)ncnc2cc1O[C@H]1CCOC1 [Afatinib] (top concentration 1000 nM)", "selective drug sensitivity score": 1.56}
{"compound": "CNC(=O)c1cc(Oc2ccc(NC(=O)Nc3ccc(Cl)c(C(F)(F)F)c3)c(F)c2)ccn1 [Regorafenib] (top concentration 10000 nM)", "selective drug sensitivity score": 4.04}
{"compound": "CC(=O)OC[C@H]1O[C@@H]([S-])[C@H](OC(C)=O)[C@@H](OC(C)=O)[C@@H]1OC(C)=O.CCP(CC)CC.[Au+] [Auranofin] (top concentration 2500 nM)", "selective drug sensitivity score": 4.84}
